src = ChEMBL document CHEMBL6092128

# measurementProtocol: Selectivity index, ratio of CC50 for cytotoxicity against African green monkey Vero cells to IC50 for antiviral activity against Variola virus India3a infected in African green monkey Vero cells
# Type: toxicity, cell-based
# reportedConditions: read-out: Ratio CC50/IC50
Provide the reported selectivity ratio of each item.
Response field accepts a number only; no unit should be typed.

Tell us which selectivity ratio value is on record for `CC1(C)CC(=O)c2c(nc(-c3ccc([N+](=O)[O-])cc3)n2O)C1`
373

Tell us which selectivity ratio value is on record for O=C(NNC(=O)C1C2C=CC(C3CC23)C1C(=O)O)c1ccc(C(F)(F)F)cc1 (stereo unspecified)
149000

Tell us which selectivity ratio value is on record for Nc1ccn(C[C@@H](CO)OCP(=O)(O)O)c(=O)n1 [CIDOFOVIR ANHYDROUS]
26

Tell us which selectivity ratio value is on record for `CC1(C)CC(=O)c2c(nc(-c3ccc(C(F)(F)F)cc3)n2O)C1`
257

Tell us which selectivity ratio value is on record for `COn1c(-c2ccc([N+](=O)[O-])cc2)nc2c1C(=O)CC(C)(C)C2`
291

Tell us which selectivity ratio value is on record for `CC1(C)CC(=O)c2c(nc(-c3ccc(C#N)cc3)n2O)C1`
120
